- experimental.system: CB1 receptors (Mus musculus)
- Construct: from tissue; host or cells: mouse brain membranes
- Sequence (P47746 whole entry): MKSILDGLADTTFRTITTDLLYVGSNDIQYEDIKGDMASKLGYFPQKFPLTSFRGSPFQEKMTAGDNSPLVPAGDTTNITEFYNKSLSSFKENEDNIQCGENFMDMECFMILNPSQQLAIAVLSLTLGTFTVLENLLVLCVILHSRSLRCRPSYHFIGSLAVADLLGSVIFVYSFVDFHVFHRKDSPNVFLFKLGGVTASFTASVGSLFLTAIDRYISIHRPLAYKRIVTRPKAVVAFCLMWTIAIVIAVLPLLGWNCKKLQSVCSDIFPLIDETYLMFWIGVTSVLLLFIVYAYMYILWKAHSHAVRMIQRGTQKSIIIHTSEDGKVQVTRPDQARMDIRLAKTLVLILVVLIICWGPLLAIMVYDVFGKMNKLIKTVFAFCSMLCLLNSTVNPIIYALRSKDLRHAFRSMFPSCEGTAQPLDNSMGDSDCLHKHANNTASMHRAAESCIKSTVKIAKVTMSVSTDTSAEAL
- Assay type: biochemical
- settings: CP-55,940 alone; read-out: ED50 required to activate G-proteins
pEC50: −log10 of the molar value.
reported.property: pEC50

smi	experimental.system	result.value
CCCCCCC(C)(C)c1ccc([C@@H]2C[C@H](O)CC[C@H]2CCCO)c(O)c1	CB1 receptors (Mus musculus)	8.37

* * *

- experimental.system: CB1 receptors (Mus musculus)
- Construct: from tissue; host or cells: mouse brain membranes
- Type: biochemical
- settings: in the presence of 30 μM tA-3; read-out: ED50 of CP-55,940 required to activate G-proteins
reported.property: EC50 (nM)

molecule	experimental.system	result.value
CC(C)/C=C/c1c(O)cc(/C=C/c2ccc(O)cc2)cc1O [tA3, trans-arachidin-3]	CB1 receptors (Mus musculus)	127
